The measured values listed here are drawn from patent US20250163138A1.

Listing of entries alongside the reported Kd.
# study.target: T1, cynomolgus monkey (cyno) complement protein C5 (cynomolgus monkey, UniProt A0A2K5U1T1 19-1676)
# T1 construct: also called cC5; cyno C5
# assay.comment: SPR (Biacore), pH 6.0
# output: bare number, implied unit nM

CRL0484 (bispecific antibody, anti-C5 VHH / (G4S)3 / anti-albumin VHH fusion, purified by Protein A; also called CRL0484 (C5/HSA)) EVQLVESGGGLVQPGGSLRLSCAASGRTFSGILSPYAVGWFRQAPGKGLEFVSTITSGGSAIYTDSVKGRFTISRDNAKDSLYLQMNSLRAEDTAVYYCAVRTRRYGSNLGEVPQENEYGYWGQGTLVTVSSGGGGSGGGGSGGGGSEVQLVESGGGLVKPGGSLRLSCAASGRPVSNYAAAWFRQAPGKEREFVSAINWQKTATYADSVKGRFTISRDNAKNSLYLQMNSLRAEDTAVYYCAAVFRVVAPKTQYDYDYWGQGTLVTVSS: 0.128
CRL0483 (bispecific antibody, anti-C5 VHH / (G4S)3 / anti-albumin VHH fusion, purified by Protein A; also called CRL0483 (C5/HSA)) EVQLVESGGGLVQPGGSLRLSCAASGRTFSGILSPYAVGWFRQAPGKGLEFVSTITSGGSAIYTDSVKGRFTISRDNAKDSLYLQMNSLRAEDTAVYYCAVRTRRYGSNLGEVPQENEYGYWGQGTLVTVSSGGGGSGGGGSGGGGSEVQLLESGGGLVQPGGSLRLSCAASGFTFRSFGMSWVRQAPGKGPEWVSSISGSGSDTLYADSVKGRFTISRDNSKNTLYLQMNSLRPEDTAVYYCTIGGSLSRSSQGTLVTVSS: 1.25
CRL0499 (bispecific antibody, anti-albumin VHH / (G4S)3 / anti-C5 VHH fusion, purified by Protein A; also called CRL0499 (HSA/C5)) EVQLLESGGGLVQPGGSLRLSCAASGFTFRSFGMSWVRQAPGKGPEWVSSISGSGSDTLYADSVKGRFTISRDNSKNTLYLQMNSLRPEDTAVYYCTIGGSLSRSSQGTLVTVSSGGGGSGGGGSGGGGSEVQLVESGGGLVQPGGSLRLSCAASGRAHSDYAMAWFRQAPGQEREFVAGIGWSGGDTLYADSVRGRFTNSRDNSKNTLYLQMNSLRAEDTAVYYCAARQGQYIYSSMRSDSYDYWGQGTLVTVSS: 2.02

Below: the item to evaluate.
Lookup: Kd for CRL0500 (bispecific antibody, anti-albumin VHH / (G4S)3 / anti-C5 VHH fusion, purified by Protein A; also called CRL0500 (HSA/C5)) EVQLVESGGGLVKPGGSLRLSCAASGRPVSNYAAAWFRQAPGKEREFVSAINWQKTATYADSVKGRFTISRDNAKNSLYLQMNSLRAEDTAVYYCAAVFRVVAPKTQYDYDYWGQGTLVTVSSGGGGSGGGGSGGGGSEVQLVESGGGLVQPGGSLRLSCAASGRAHSDYAMAWFRQAPGQEREFVAGIGWSGGDTLYADSVRGRFTNSRDNSKNTLYLQMNSLRAEDTAVYYCAARQGQYIYSSMRSDSYDYWGQGTLVTVSS ?
Found: 0.641
